Origin of the recorded values: PubChem BioAssay (NCATS)

- test: qHTS for Inhibitors of the Functional Ribonucleoprotein Complex (vRNP) of Lymphocytic Choriomeningitis Arenaviruses (LCMV): Viability assay - alamar blue signal for LCMV Primary Screen (AID 1347085); note: nearly all actives have a fitted effect of over 80% in size
- conditionNotes: alamar blue viability counter-screen, LCMV vRNP screen cells; series mostly up to 57.5 µM
Results filed as inconclusive are left out. Active and inactive are the calls of the source. Calls come from the whole dose curve; tested in HEK293 reporter line.
Classes used: active, inactive

- compound: "C[N+]1(C)CCc2cc3c(cc2[C@H]1[C@@H]1OC(=O)c2c1ccc1c2OCO1)OCO3"
  labelValue: "inactive"
- compound: "C[C@@H]1O[C@@H](O[C@H]2C[C@@H](O)[C@]3(CO)[C@@H]4C(CC[C@]3(O)C2)[C@@]2(O)CC[C@H]([C@@H]3COC(=O)C3)[C@@]2(C)C[C@H]4O)[C@H](O)[C@H](O)[C@H]1O (stereo partly drawn)"
  labelValue: "active"
- compound: "C=CCN1CCc2cccc3c2[C@H]1Cc1ccc(O)c(O)c1-3"
  labelValue: "inactive"
- compound: "Oc1ccc2c3c1O[C@H]1c4oc5ccccc5c4C[C@@]4(O)C(C2)N(CC2CC2)CCC314 (stereo partly drawn)"
  labelValue: "inactive"
- compound: "C[N+]1(C)CCOC(O)(c2ccc(-c3ccc(C4(O)C[N+](C)(C)CCO4)cc3)cc2)C1 (stereo not drawn)"
  labelValue: "inactive"
- compound: "C[C@]12C=CC(=O)C=C1CC[C@@H]1[C@@H]2CC[C@]2(C)OC(=O)CC[C@@H]12"
  labelValue: "inactive"
- compound: "Cc1[nH]c2ccc(O)cc2c1CCN"
  labelValue: "inactive"
- compound: "CCCN1CCc2cc(O)cc3c2[C@H]1Cc1ccc(O)c(O)c1-3"
  labelValue: "inactive"
